These measurements were taken from patent US8987217B2.

# System: C. albicans
# measurement notes: C. elegans-C. albicans co-inoculation assay, nematode survival
# Type: in vivo
# assay context: dose response, C. albicans-infected C. elegans
measured quantity: maximum nematode survival (%)
Please reply with the bare figure in % and do not write the unit itself.

Study these solved cases before continuing.
[
  {
    "compound": "CC1CC[C@@]2(OC1)O[C@H]1CC3C4C[C@@H](O)C5C[C@@H](O[C@@H]6O[C@H](CO)[C@H](O[C@@H]7O[C@H](CO)[C@@H](O)[C@H](O[C@@H]8OC[C@@H](O)[C@H](O)[C@H]8O)[C@H]7O[C@@H]7O[C@H](CO)[C@@H](O)[C@H](O)[C@H]7O)[C@H](O)[C@H]6O)[C@H](O)C[C@]5(C)C4CC[C@]3(C)[C@H]1[C@@H]2C (some centres unmarked) [A16, Aginoside]",
    "maximum nematode survival, %": 67
  },
  {
    "compound": "C[C@@H]1[C@H](O)[C@@H](C)/C=C/C=C/C=C/C=C/C=C/C=C/C=C/[C@H](O[C@@H]2O[C@H](C)[C@@H](O)[C@H](N)[C@@H]2O)C[C@@H]2O[C@](O)(C[C@@H](O)C[C@@H](O)[C@H](O)CC[C@@H](O)C[C@@H](O)CC(=O)O[C@H]1C)C[C@H](O)[C@H]2C(=O)O",
    "maximum nematode survival, %": 93
  },
  {
    "compound": "CC1(C)CC[C@]2(C(=O)O)CC[C@]3(C)C(=CCC4[C@@]5(C)CC[C@H](OC6O[C@H](CO)[C@@H](O)[C@H](O[C@@H]7O[C@H](CO)[C@@H](O)[C@H](O)[C@H]7O)[C@H]6O)C(C)(C)C5CC[C@]43C)[C@@H]2C1 (some centres unmarked) [A6, Arvensoside B]",
    "maximum nematode survival, %": 27
  },
  {
    "compound": "C/C=C(/C)C(=O)O[C@H]1[C@H](OC(=O)/C(C)=C\\C)[C@]2(CO)[C@H](O)C[C@]3(C)C(=CCC4[C@@]5(C)CC[C@H](OC6OC(C(=O)O)C(O)C(OC7OC(C)C(O)C(OC8OC(CO)C(O)C(O)C8O)C7O)C6O)C(C)(C)C5CC[C@]43C)[C@@H]2CC1(C)C (some centres unmarked)",
    "maximum nematode survival, %": 93
  }
]

Kindly review the next compound as well.
Lookup: For C/C=C(/C)C(=O)O[C@H]1CC(C)(C)C[C@H]2C3=CCC4[C@@]5(C)CC[C@H](O[C@@H]6O[C@H](C(=O)O)[C@@H](O[C@@H]7O[C@H](CO)[C@H](O)[C@H](O)[C@H]7O[C@@H]7O[C@H](CO)[C@@H](O)[C@H](O)[C@H]7O)[C@H](O)[C@H]6OC6O[C@@H](C)[C@H](O)[C@@H](O)[C@H]6O)C(C)(C)C5CC[C@@]4(C)[C@]3(C)C[C@@H](O)[C@@]12CO (some centres unmarked) , write its maximum nematode survival.
Found: 80

---

# System: C. albicans strain DAY185
# measurement notes: in vitro antifungal activity (MIC) in the co-inoculation assay, turbidity read visually
# Format: cell-based
# assay context: co-inoculation assay, two-fold serial dilutions, C. albicans DAY185
# Procedure: The procedure for the co-inoculation antifungal compound screen were conducted as previously described (Okoli et al., PLoS ONE, 4:e7025 (2009); Tampakakis et al., Nat Protocols, 3:1925-1931 (2008)), using the C. albicans strain DAY185 (Davis et al., Infect Immun, 68:5953-5959 (2000)) and the C. elegans glp-4;sek-1 double mutant. […]
measured quantity: MIC in vitro (µg/mL)
Please reply with the bare figure in µg/mL and do not write the unit itself.

Study these solved cases before continuing.
[
  {
    "molecule": "C/C=C(/C)C(=O)O[C@H]1[C@H](OC(=O)/C(C)=C\\C)[C@]2(CO)[C@H](O)C[C@]3(C)C(=CCC4[C@@]5(C)CC[C@H](OC6OC(C(=O)O)C(O)C(OC7OC(C)C(O)C(OC8OC(CO)C(O)C(O)C8O)C7O)C6O)C(C)(C)C5CC[C@]43C)[C@@H]2CC1(C)C (stereo partly drawn) [A7]",
    "study system": "C. albicans strain DAY185",
    "reported result": 3.1
  },
  {
    "molecule": "C[C@@H]1[C@H](O)[C@@H](C)/C=C/C=C/C=C/C=C/C=C/C=C/C=C/[C@H](O[C@@H]2O[C@H](C)[C@@H](O)[C@H](N)[C@@H]2O)C[C@@H]2O[C@](O)(C[C@@H](O)C[C@@H](O)[C@H](O)CC[C@@H](O)C[C@@H](O)CC(=O)O[C@H]1C)C[C@H](O)[C@H]2C(=O)O [Amphotericin B]",
    "study system": "C. albicans strain DAY185",
    "reported result": 1.0
  },
  {
    "molecule": "C/C=C(/C)C(=O)O[C@H]1CC(C)(C)C[C@H]2C3=CCC4[C@@]5(C)CC[C@H](O[C@@H]6O[C@H](C(=O)O)[C@@H](O[C@@H]7O[C@H](CO)[C@H](O)[C@H](O)[C@H]7O[C@@H]7O[C@H](CO)[C@@H](O)[C@H](O)[C@H]7O)[C@H](O)[C@H]6OC6O[C@@H](C)[C@H](O)[C@@H](O)[C@H]6O)C(C)(C)C5CC[C@@]4(C)[C@]3(C)[C@@H](OC(C)=O)[C@@H](O)[C@@]12COC(C)=O (stereo partly drawn) [A25]",
    "study system": "C. albicans strain DAY185",
    "reported result": 28.7
  },
  {
    "molecule": "CC1CC[C@@]2(OC1)O[C@H]1CC3C4CC=C5C[C@@H](O[C@@H]6O[C@H](CO)[C@@H](O[C@@H]7O[C@@H](C)[C@H](O)[C@@H](O)[C@H]7O[C@@H]7O[C@@H](C)[C@H](O)[C@@H](O)[C@H]7O)[C@H](O)[C@H]6O)CC[C@]5(C)C4CC[C@]3(C)[C@H]1[C@@H]2C (stereo partly drawn) [A20]",
    "study system": "C. albicans strain DAY185",
    "reported result": 4.8
  },
  {
    "molecule": "CC1CC[C@@]2(OC1)O[C@H]1CC3C4CC=C5C[C@@H](O[C@@H]6O[C@H](CO)[C@@H](O[C@@H]7O[C@@H](C)[C@H](O)[C@@H](O)[C@H]7O)[C@H](O)[C@H]6O[C@@H]6O[C@@H](C)[C@H](O)[C@@H](O)[C@H]6O)CC[C@]5(C)C4CC[C@]3(C)[C@H]1[C@@H]2C (stereo partly drawn) [A11]",
    "study system": "C. albicans strain DAY185",
    "reported result": 38.9
  }
]

Lookup: Consider the molecule CC1CC[C@@]2(OC1)O[C@H]1CC3C4C[C@@H](O)C5C[C@@H](O[C@@H]6O[C@H](CO)[C@H](O[C@@H]7O[C@H](CO)[C@@H](O)[C@H](O[C@@H]8OC[C@@H](O)[C@H](O)[C@H]8O)[C@H]7O[C@@H]7O[C@H](CO)[C@@H](O)[C@H](O)[C@H]7O)[C@H](O)[C@H]6O)CC[C@]5(C)C4CC[C@]3(C)[C@H]1[C@@H]2C (stereo partly drawn) [A8] tested on C. albicans strain DAY185; state its MIC in vitro.
Found: 5.8
